Reference source for all entries: PubChem BioAssay AID1996

- condition: buffer; pH 7.4; 200.0 µM
For each record, write down the corresponding solubility kinetic.
Give the value, in units of µg/mL, as a plain number.

Lab book: solubility kinetic of "COC(=O)c1cc(S(=O)(=O)N(C)C2CCCCC2)cn1C" noted as 45

Lab book: solubility kinetic of "Cc1ccc(C)c(N(CC(=O)N2CCCCCC2)S(C)(=O)=O)c1" noted as 46.9

Lab book: solubility kinetic of "O=S(=O)(NCc1ccccc1)c1cccc2nsnc12" noted as 44.2

Lab book: solubility kinetic of "COc1ccc(C2=C(c3ccc([N+](=O)[O-])cc3)C(=O)OC2)cc1" noted as 3.4

Lab book: solubility kinetic of "FC(F)(F)c1ccc(CSc2ccccn2)cc1" noted as 1.2

Lab book: solubility kinetic of "N/C(=N\O)c1cccc(CS(=O)(=O)c2ccccn2)c1" noted as 37

Lab book: solubility kinetic of "Cc1ccc(S(=O)(=O)N(C)C)cc1NC(=O)c1cc(-c2ccncc2)nc2ccccc12" noted as 10

Lab book: solubility kinetic of "O=C1CC(/C=C/c2ccccc2)=Nc2ccccc2N1" noted as 2.1

Lab book: solubility kinetic of "Nc1ccc2oc(=O)c(-c3ccccc3)cc2c1" noted as 19.3

Lab book: solubility kinetic of "Cc1cccc(N=C2NC(=O)/C(=C/c3cccn3C)S2)c1C" noted as 8.2

Lab book: solubility kinetic of "Cc1cc(C(=O)OCC(N)=O)c(C)n1-c1ccccc1" noted as 40.1

Lab book: solubility kinetic of "Cc1ccc2nc(-c3ccccc3)oc(=O)c2c1" noted as 0.9

Lab book: solubility kinetic of "O=C(c1cc2cc(F)ccc2[nH]1)N1CCN(c2cccc(Cl)c2)CC1" noted as 0.5

Lab book: solubility kinetic of "COc1cc(/C=C/c2ccc3cccc(O)c3n2)ccc1O" noted as 4.8

Lab book: solubility kinetic of "CC(C)Nc1nc(NC2CCCC2)nc(N2CCOCC2)n1" noted as 16.3

---

- condition: buffer; pH 7.4; 200.0 µM
For each record, write down the corresponding log10 solubility kinetic.
Please keep in mind that the values are log10 of solubility kinetic expressed in µg/mL.

Lab book: log10 solubility kinetic of "O=C(c1ccc([N+](=O)[O-])s1)N1CCc2ccccc2C1" noted as 0.45

Lab book: log10 solubility kinetic of "Cc1ccc(NCc2ccc(O)c3ncccc23)cc1" noted as 0.70

Lab book: log10 solubility kinetic of "CCOc1ccc(/C=C/c2nc(C#N)c(NCCCOC)o2)cc1" noted as 0.53

Lab book: log10 solubility kinetic of "CC(C)(C)N(Cc1ccccc1)C(=O)COC(=O)c1ccc2ccccc2n1" noted as 0.48

Lab book: log10 solubility kinetic of CC1CC(C)CN(S(=O)(=O)c2ccc3c(c2)CC(=O)N3)C1 (configuration not stated) noted as 0.97

Lab book: log10 solubility kinetic of "CN(C)C=Nc1nonc1-c1ccc(Cl)cc1" noted as 0.15

Lab book: log10 solubility kinetic of "Cc1ncc([N+](=O)[O-])n1CCN1C(=O)c2ccccc2C1=O" noted as 1.65

---

- condition: buffer; pH 7.4; 200.0 µM
measured-endpoint: solubility kinetic

Lab book: solubility kinetic of "COc1ccc(NS(=O)(=O)c2ccc(Cl)c(NC(=O)c3ccccc3F)c2)cc1" noted as 2.6 µg/mL

Lab book: solubility kinetic of "O=C(NNC(=S)NCCCN1CCOCC1)c1ccncc1" noted as > 48.5 µg/mL

Lab book: solubility kinetic of "S=C(c1ccc2c(c1)OCO2)N1CCOCC1" noted as > 37.7 µg/mL

Lab book: solubility kinetic of "Cc1c(O)nc2ccccn2c1=O" noted as > 26.4 µg/mL

Lab book: solubility kinetic of "Cc1ccc(C(=O)OCC(=O)NC2CCCCC2)s1" noted as > 42.2 µg/mL

Lab book: solubility kinetic of "COc1ccc(S(=O)(=O)N2CCN(C(=O)c3cc(C)nc4ccccc34)CC2)cc1OC" noted as > 68.3 µg/mL

Lab book: solubility kinetic of "CCSC1=NCCN1C(=O)c1c(-c2ccccc2Cl)noc1C" noted as > 52.5 µg/mL

Lab book: solubility kinetic of CSc1ccccc1NC(=O)C1CC(c2ccccc2Cl)=NO1 (configuration not stated) noted as 0.8 µg/mL

Lab book: solubility kinetic of "COc1ccc(OCc2csc(N)n2)cc1" noted as > 35.4 µg/mL

Lab book: solubility kinetic of "CC(=O)c1cccc(Nc2cc(C)nc3c(C)cccc23)c1.Cl" noted as > 49 µg/mL

Lab book: solubility kinetic of "Cc1cccc(C(=O)OCC(=O)N2CCCCCC2)c1C" noted as > 43.4 µg/mL

Lab book: solubility kinetic of "CCCCOc1ccc(C2=CSC3=NCCN23)cc1[N+](=O)[O-]" noted as > 47.9 µg/mL

---

- condition: buffer; pH 7.4; 200.0 µM
Would you please tag the item y when its solubility kinetic is 6 µg/mL or above, and n when it is below?

Q: hey, is solubility kinetic for this one >= 6 µg/mL? CCc1ccc(C(=O)CN2C(=O)NC3(CCc4ccccc43)C2=O)cc1 (stereo unspecified)
Ans: y

Q: hey, is solubility kinetic for this one >= 6 µg/mL? Cc1ccc(NC(=O)c2cccc(N3C(=O)C4C5C=CC(C5)C4C3=O)c2)cc1C (stereo unspecified)
Ans: n

Q: hey, is solubility kinetic for this one >= 6 µg/mL? "O=C(COc1ccc(/C=C\[N+](=O)[O-])cc1)N1CCOCC1"
Ans: y

Q: hey, is solubility kinetic for this one >= 6 µg/mL? "Cc1cc(C)c2c(CN3CCC(C)CC3)cc(=O)oc2c1C"
Ans: n

Q: hey, is solubility kinetic for this one >= 6 µg/mL? CO/N=C/C(c1ccc(Cl)nc1)S(=O)(=O)c1ccccc1 (stereo unspecified)
Ans: y

Q: hey, is solubility kinetic for this one >= 6 µg/mL? O=C(Nc1ccc(Cl)cc1Cl)C1CCCO1 (stereo unspecified)
Ans: y

Q: hey, is solubility kinetic for this one >= 6 µg/mL? "O=S(=O)(Nc1ccc(S(=O)(=O)N2CCCC2)cc1)c1ccc(F)cc1F"
Ans: y

Q: hey, is solubility kinetic for this one >= 6 µg/mL? "NNC(=O)CCN1CCN(Cc2ccccc2)CC1"
Ans: y

Q: hey, is solubility kinetic for this one >= 6 µg/mL? "O=C(NCCN1CCOCC1)c1ccc(Cl)c([N+](=O)[O-])c1"
Ans: y

Q: hey, is solubility kinetic for this one >= 6 µg/mL? "Cc1[nH]c2ccccc2c1-c1nc2ccccc2[nH]c1=O"
Ans: n

Q: hey, is solubility kinetic for this one >= 6 µg/mL? "O=S(=O)(NC1CCCCCCC1)c1ccc(F)cc1"
Ans: y

---

- condition: buffer; pH 7.4; 200.0 µM
measured-endpoint: solubility kinetic (µg/mL)
Give the value, in units of µg/mL, as a plain number.

Lab book: solubility kinetic of CC1CC(C)(C)NC(=S)N1CC(=O)NCc1ccc2c(c1)OCO2 (stereo not drawn) noted as 36.2

Lab book: solubility kinetic of "O=C(CNC(=O)c1ccc2c(c1)OCO2)NCCOc1ccc(Cl)cc1" noted as 13.7

Lab book: solubility kinetic of "Clc1ccc(OCCn2cnc(Cl)c2Cl)cc1" noted as 21.1

Lab book: solubility kinetic of "CC(C)CCNc1nc(N)c([N+](=O)[O-])c(NCCO)n1" noted as 42.3

Lab book: solubility kinetic of "CN(C(=O)/C=C/c1ccc2c(c1)OCO2)c1ccccc1" noted as 34.7

Lab book: solubility kinetic of "O=C(Nc1ccccc1[N+](=O)[O-])C1(c2ccccc2)CCOCC1" noted as 42.3

Lab book: solubility kinetic of "CN(CC(=O)N1CCCCC1)S(=O)(=O)c1ccc(Cl)cc1" noted as 47.5

Lab book: solubility kinetic of "CCOC(=O)C1CCN(C(=O)Nc2ccc(C)c(Cl)c2)CC1" noted as 6.9

Lab book: solubility kinetic of "COc1ccccc1C(=O)Nc1nc2ccccc2[nH]1" noted as 4.2

Lab book: solubility kinetic of CCC(C(=O)Nc1ccc([N+](=O)[O-])cn1)c1ccccc1 (stereo not drawn) noted as 39.3

Lab book: solubility kinetic of "CCCc1ccc(C(=O)NC(=O)c2ccccc2O)cc1" noted as 3.2

Lab book: solubility kinetic of "COc1ccc(/C(N)=N/OC(=O)c2cccc([N+](=O)[O-])c2C)cc1" noted as 1.1

Lab book: solubility kinetic of O=C1NCC(COc2ccc([N+](=O)[O-])cc2)O1 (stereo not drawn) noted as 34.1

Lab book: solubility kinetic of "CC(C)(C)NC(=O)CSc1ncccc1-c1nc2ccccc2[nH]1" noted as 3.3

Lab book: solubility kinetic of "O=C(Nc1ccc2c(c1)C(=O)OC2)c1ccc(Cl)cc1Cl" noted as 3

Lab book: solubility kinetic of "CCc1ccc(NC(=O)Cn2cc([N+](=O)[O-])nc2C)cc1" noted as 6.7

Lab book: solubility kinetic of "CC(=O)c1ccccc1NC(=O)COC(=O)c1cc(C)oc1C" noted as 2.2

Lab book: solubility kinetic of "COc1cccc(CN(C)C(=O)CCC(=O)c2cc(Br)ccc2OC)c1" noted as 18.3

Lab book: solubility kinetic of "CCc1noc(C)c1C(=O)Nc1nc(-c2cccs2)cs1" noted as 19.3

Lab book: solubility kinetic of Cc1ccc(SC(C)C(=O)NC(N)=O)c(C)c1 (stereo not drawn) noted as 7.7

Lab book: solubility kinetic of "Cc1ccc(OCC(=O)O/N=C(\N)c2cccc([N+](=O)[O-])c2)cc1C" noted as 1.8

Lab book: solubility kinetic of "Cc1ccc2[nH]c(=O)c(CN(C(=O)c3cccc([N+](=O)[O-])c3)C(C)(C)C)cc2c1" noted as 2.9

Lab book: solubility kinetic of "Cc1cc(C)nc(SCc2ccc([N+](=O)[O-])cc2)n1" noted as 6.1

Lab book: solubility kinetic of "COc1cccc(N=C(N)N=C(N)N)c1" noted as 25.6

Lab book: solubility kinetic of "CC(C)(C)/C(COc1ccccc1[N+](=O)[O-])=N/O" noted as 20.6
